These entries and their values trace back to PubChem BioAssay (NCI).

Test system: SK-MEL-5 melanoma
Assay: NCI-60 one-dose screen, 48 h (100 = growth as untreated, 0 = no growth, -100 = all killed)
Conditions: 10 µM
Compounds without any hit were thinned out: in the full panel of roughly 83,000, 20% have a hit. Calls of active or inactive are those of the source. The calls were made as follows: active = growth percent below 10; inactive = the rest.
growth reference

>  <compound>
Cc1c2oc3c(C)ccc(C(=O)N[C@@H]4C(=O)N[C@H](C(C)C)C(=O)N5CCC[C@H]5C(=O)N(C)CC(=O)N(C)[C@@H](C(C)C)C(=O)OC4C)c3nc-2c(C(=O)N[C@@H]2C(=O)N[C@H](C(C)C)C(=O)N3CC(=O)C[C@H]3C(=O)N(C)CC(=O)N(C)[C@@H](C(C)C)C(=O)OC2C)c(N)c1=O (stereo partly specified)

>  <growth>
-48.6% (active)

$$$$
>  <compound>
CC[C@]12C=CCN3CC[C@@]4(c5ccc(OC)cc5N(C)[C@H]4[C@@](O)(C(=O)OC)[C@@H]1OC(=O)CCC[P+](c1ccc(F)cc1)(c1ccc(F)cc1)c1ccc(F)cc1)[C@@H]32

>  <growth>
-38.3% (active)

$$$$
>  <compound>
CC(C)C[C@H](NC(=O)CNC(=O)C[C@H]1O[C@@H]2OC3(C)CC[C@H]4[C@H](C)CC[C@@H]([C@H]1C)[C@@]24OO3)B(O)O

>  <growth>
-90.2% (active)

$$$$
>  <compound>
C#CC[Se]C(=O)c1ccc(C(=O)[Se]CC#C)s1

>  <growth>
96.6% (inactive)

$$$$
>  <compound>
O=C(NCCCCC(c1ccc(F)cc1)c1ccc(F)cc1)Nc1ccc([N+](=O)[O-])c(C(F)(F)F)c1

>  <growth>
-100% (active)

$$$$
>  <compound>
COC(=O)c1ccc(-n2cc(CCCN(CCNc3ccnc4cc(Cl)ccc34)C(=O)CCC(=O)O[C@@H]3O[C@@H]4OC5(C)CC[C@H]6[C@H](C)CC[C@@H]([C@H]3C)[C@@]46OO5)nn2)cc1

>  <growth>
-70.1% (active)

$$$$
